Data credit: ChEMBL document CHEMBL5724914

runParameters: human gut metagenome, 24 h, 2 µM; also: call rule not given here
recordedMetric: Bacterial Biotransformation

>>> observedresult("CC(Oc1c(Cl)cccc1Cl)C1=NCCN1 (stereo not drawn)")
"Compound NOT metabolized"
>>> observedresult("Cc1ccc(-c2nc3ccc(C)cn3c2CC(=O)N(C)C)cc1")
"Compound NOT metabolized"
>>> observedresult("OC(CCN1CCCCC1)(c1ccccc1)C1CC2C=CC1C2 (stereo not drawn)")
"Compound NOT metabolized"
>>> observedresult("Cc1ccnc2c1NC(=O)c1cccnc1N2C1CC1")
"Compound NOT metabolized"
>>> observedresult("CN(C)C(=O)C(CCN1CCC(O)(c2ccc(Cl)cc2)CC1)(c1ccccc1)c1ccccc1 [LOPERAMIDE]")
"Compound metabolized"
>>> observedresult("Nc1c2c(nc3ccccc13)CCCC2")
"Compound NOT metabolized"

Task: Form field: reported Bacterial Biotransformation of CC(=O)O[C@]1(C(C)=O)CC[C@H]2[C@@H]3C=C(Cl)C4=CC(=O)[C@@H]5C[C@@H]5[C@]4(C)[C@H]3CC[C@@]21C [CYPROTERONE ACETATE]
Result: Compound metabolized

Task: Form field: reported Bacterial Biotransformation of CCCc1nn(C)c2c(=O)[nH]c(-c3cc(S(=O)(=O)N4CCN(C)CC4)ccc3OCC)nc12.O=C(O)CC(O)(CC(=O)O)C(=O)O [SILDENAFIL CITRATE]
Result: Compound NOT metabolized

====

runParameters: human gut metagenome, 24 h, 2 µM
recordedMetric: Bacterial Biotransformation

>>> observedresult("CS(=O)(=O)O.OC(CCN1CCCCC1)(c1ccccc1)c1ccccc1 [PRIDINOL METHANESULFONATE]")
"Compound NOT metabolized"
>>> observedresult("CC(C)c1c(C(=O)Nc2ccccc2)c(-c2ccccc2)c(-c2ccc(F)cc2)n1CC[C@@H](O)C[C@@H](O)CC(=O)O [ATORVASTATIN]")
"Compound NOT metabolized"
>>> observedresult("CN1CC(=O)N2[C@H](c3ccc4c(c3)OCO4)c3[nH]c4ccccc4c3C[C@@H]2C1=O")
"Compound metabolized"
>>> observedresult("CCCCC(=O)N(Cc1ccc(-c2ccccc2-c2nnn[nH]2)cc1)[C@H](C(=O)O)C(C)C")
"Compound metabolized"

Task: Form field: reported Bacterial Biotransformation of CS(=O)(=O)O.O.O.O.O=C1Cc2cc(CCN3CCN(c4nsc5ccccc45)CC3)c(Cl)cc2N1 [ZIPRASIDONE MESYLATE]
Result: Compound NOT metabolized

Task: Form field: reported Bacterial Biotransformation of O=C(O)CCc1nc(-c2ccccc2)c(-c2ccccc2)o1 [OXAPROZIN]
Result: Compound metabolized

Task: Form field: reported Bacterial Biotransformation of O=C(Nc1ccccc1)OCC(CN1CCCCC1)OC(=O)Nc1ccccc1 (stereo not drawn) [DIPERODON]
Result: Compound NOT metabolized

Task: Form field: reported Bacterial Biotransformation of CC(Oc1c(Cl)cccc1Cl)C1=NCCN1 (stereo not drawn) [LOFEXIDINE]
Result: Compound NOT metabolized

====

methodDescription: The drug is tested on Z-004 corresponding to metagenome with ENA study accession number: PRJEB37062 and ENA sample accession number: ERS12561804 for biotransformation under anaerobic condition. The drug concentrations were measured over 9 timepoints collected between 0 and 24 hours of incubation by liquid-chromatography-coupled mass spectrometry (LC–MS)
runParameters: 2 µM
Where a SMILES comes first, the peptide text is derived from it. [ ]: non-standard residue; d: D form. pGlu = O=C1CC[C@@H](C(=O)O)N1; Thz = O=C(O)[C@@H]1CSCN1
recordedMetric: Bacterial Biotransformation

Please review the following examples before continuing.
>>> observedresult("CCOC(=O)[C@H](CCc1ccccc1)N[C@H]1CCc2ccccc2N(CC(=O)O)C1=O")
"Compound metabolized"
>>> observedresult("CC[C@@H](CO)NC(=O)[C@@H]1C=C2c3cccc4c3c(cn4C)C[C@H]2N(C)C1.O=C(O)/C=C\\C(=O)O [METHYSERGIDE MALEATE]")
"Compound NOT metabolized"
>>> observedresult("CCC1(c2ccc(N)cc2)CCC(=O)NC1=O (stereo unspecified) [AMINOGLUTETHIMIDE]")
"Compound NOT metabolized"
>>> observedresult("CNC(=C[N+](=O)[O-])NCCSCc1csc(CN(C)C)n1")
"Compound NOT metabolized"
>>> observedresult("COc1c2occc2cc2ccc(=O)oc12")
"Compound metabolized"

Task: Form field: reported Bacterial Biotransformation of O=C1CC[C@@H](C(=O)N2CSC[C@H]2C(=O)O)N1 [PIDOTIMOD] ([pGlu]-[Thz]-OH)
Result: Compound NOT metabolized

Task: Form field: reported Bacterial Biotransformation of CN(C)C(=O)C(CCN1CCC(O)(c2ccc(Cl)cc2)CC1)(c1ccccc1)c1ccccc1 [LOPERAMIDE]
Result: Compound metabolized

Task: Form field: reported Bacterial Biotransformation of CC(CN(C)C)CN1c2ccccc2CCc2ccccc21.O=C(O)/C=C\C(=O)O (stereo unspecified) [TRIMIPRAMINE MALEATE]
Result: Compound NOT metabolized
